# Test system: ATP;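 further: ATP exposure 15 min at 22 °C before imaging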
# TEST_PROTOCOL: switch fluorescence ratio, 500 uM ATP over buffer (Cy3 cluster intensity, sum of 5 cycles each) (fold (ratio)); higher = stronger signal-on switching upon ATP binding; sequences stand for … in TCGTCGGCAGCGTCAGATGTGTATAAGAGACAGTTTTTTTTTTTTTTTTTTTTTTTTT…TC
# COND: aptamer strand: ATP DNA aptamer (quencher-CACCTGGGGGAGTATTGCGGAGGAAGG + anchor), 100 nM annealed; ATP concentration: 500 uM
ATTRIBUTE_MEASURED: switch fluorescence ratio
Answer as a number with no unit attached.

Examples with their reported switch fluorescence ratio follow.
SEQUENCE_ENTRY	REPORTED_MEASUREMENT
TCGACGGGGG	1.06
ATGGGTGGTT	0.995
ATGAGTCATG	1.01
ACTTTTCTCG	1.01
GAATCTCGGA	1.02

stdin: Field request: switch fluorescence ratio | item: TGTTTAACAT
stdout: 0.981

stdin: // repeat for AAGGGGTAGT and report
stdout: 0.997

stdin: Okay, and ACGTTACTAC ?
stdout: 1.52

stdin: And then ATGGTGCAGG , what is it?
stdout: 1.06

stdin: Field entry: GAGAAGAGGA
stdout: 0.992

stdin: What do we get for CAATTGGGGT ?
stdout: 1.03
